All figures here come from patent US12486276B2.

pIC50: −log10 of the molar value.
Parameter pIC50, tested on TrkA kinase domain (Homo sapiens, UniProt P04629), listed per item.
Sequence (P04629 510-781 limits assumed): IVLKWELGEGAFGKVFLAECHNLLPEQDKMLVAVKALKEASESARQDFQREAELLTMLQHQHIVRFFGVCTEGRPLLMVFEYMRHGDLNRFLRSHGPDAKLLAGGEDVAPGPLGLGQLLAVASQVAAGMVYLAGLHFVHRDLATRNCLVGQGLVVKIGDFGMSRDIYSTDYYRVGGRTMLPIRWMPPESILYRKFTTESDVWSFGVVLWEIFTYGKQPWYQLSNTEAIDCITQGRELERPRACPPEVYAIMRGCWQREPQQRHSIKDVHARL

{"cpd-smiles": "CN(C)Cc1cnn(-c2cnn3ccc(N4CCC[C@@H]4c4cc(F)ccc4F)nc23)c1", "pIC50": "> 8.00"}
{"cpd-smiles": "Fc1ccc(F)c([C@H]2CCCN2c2ccn3ncc(-n4cc(OC5COC5)cn4)c3n2)c1", "pIC50": "> 8.00"}

Kindly review the next compound as well.
Short answer please: pIC50, TrkA kinase domain (Homo sapiens, UniProt P04629), entry "Fc1ccc(F)c([C@H]2CCCN2c2ccn3ncc(-n4cc(-c5ccccc5)cn4)c3n2)c1"
> 8.00
